These measurements were taken from patent US20190071490A1.

Target: T1, human α-CGRP 1-37 (WT) (human, C-terminal amide; N-terminal biotin when captured on the SA chip; 125I-labelled in the radioligand assay)
T1 construct: also called α-human
T1 peptide: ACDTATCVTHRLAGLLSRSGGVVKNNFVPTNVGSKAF
Experiment: Biacore, 37°C, Fab over CGRP on SA chip
endpoint: koff (s⁻¹)
Lab book: enter the figure in s⁻¹, no units written.

binder="G1 variant M62 Fab (Fab, V domains shown, Fab; constant domains as m1) VH: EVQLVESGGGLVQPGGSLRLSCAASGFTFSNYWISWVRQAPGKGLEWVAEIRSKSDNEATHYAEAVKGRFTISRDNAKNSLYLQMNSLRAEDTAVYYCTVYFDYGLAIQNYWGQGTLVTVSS VL: EIVLTQSPATLSLSPGERATLSCKASKNVGTYVSWYQQKPGQAPRLLIYGHSNRYTGIPARFSGSGSGTDFTLTISSLEPEDFAVYYCSQSYNYPYTFGQGTKLEIK" endpoint=koff value_observed=0.000557
binder="G1 variant M12 Fab (Fab, V domains shown, Fab; constant domains as m1) VH: EVQLVESGGGLVQPGGSLRLSCAASGFTFSNYWISWVRQAPGKGLEWVAEIRSESDASATHYAEAVKGRFTISRDNAKNSLYLQMNSLRAEDTAVYYCSVYFDYGLAIQNYWGQGTLVTVSS VL: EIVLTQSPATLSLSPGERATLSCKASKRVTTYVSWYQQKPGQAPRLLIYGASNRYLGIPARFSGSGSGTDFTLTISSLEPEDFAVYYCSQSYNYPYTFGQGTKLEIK" endpoint=koff value_observed=0.000101
binder="G1 variant M44 Fab (Fab, V domains shown, Fab; constant domains as m1) VH: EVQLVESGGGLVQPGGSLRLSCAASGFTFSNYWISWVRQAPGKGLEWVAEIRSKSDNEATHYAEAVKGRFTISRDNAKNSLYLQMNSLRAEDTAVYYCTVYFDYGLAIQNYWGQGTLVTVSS VL: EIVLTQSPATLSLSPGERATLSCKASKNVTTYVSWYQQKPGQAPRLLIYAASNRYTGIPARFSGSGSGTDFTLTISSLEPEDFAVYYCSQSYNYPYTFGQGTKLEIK" endpoint=koff value_observed=0.00021

[ask] Suppose we examine the binder G1 variant M18 Fab (Fab, V domains shown, Fab; constant domains as m1) VH: EVQLVESGGGLVQPGGSLRLSCAASGFTFSNYWISWVRQAPGKGLEWVAEIRSESDASATHYAEAVKGRFTISRDNAKNSLYLQMNSLRAEDTAVYYCVGYFDYGLAIQNYWGQGTLVTVSS VL: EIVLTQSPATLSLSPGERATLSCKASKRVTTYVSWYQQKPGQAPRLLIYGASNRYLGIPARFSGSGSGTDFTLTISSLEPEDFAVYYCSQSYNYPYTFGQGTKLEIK ; what koff value has been reported?
[reply] 7.03e-05

[ask] Suppose we examine the binder G1 variant M20 Fab (Fab, V domains shown, Fab; constant domains as m1) VH: EVQLVESGGGLVQPGGSLRLSCAASGFTFSNYWISWVRQAPGKGLEWVAEIRSESDASATHYAEAVKGRFTISRDNAKNSLYLQMNSLRAEDTAVYYCRLYFDYGLAIQNYWGQGTLVTVSS VL: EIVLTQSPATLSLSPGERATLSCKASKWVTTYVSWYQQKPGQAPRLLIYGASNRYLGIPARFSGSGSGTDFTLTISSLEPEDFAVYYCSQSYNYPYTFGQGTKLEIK ; what koff value has been reported?
[reply] 0.000136
